This collection of values is drawn from patent US20250195485A1.

target: integrin α4β1 (Homo sapiens, UniProt P05556+P13612); construct: Jurkat cells were collected, washed twice using DPBS buffer; endogenous in cells; assay: Integrin α4β1-mediated cell adhesion assay (Jurkat cells on VCAM); details: Jurkat cells adhering to VCAM-1
Sequence (P13612 34-1032): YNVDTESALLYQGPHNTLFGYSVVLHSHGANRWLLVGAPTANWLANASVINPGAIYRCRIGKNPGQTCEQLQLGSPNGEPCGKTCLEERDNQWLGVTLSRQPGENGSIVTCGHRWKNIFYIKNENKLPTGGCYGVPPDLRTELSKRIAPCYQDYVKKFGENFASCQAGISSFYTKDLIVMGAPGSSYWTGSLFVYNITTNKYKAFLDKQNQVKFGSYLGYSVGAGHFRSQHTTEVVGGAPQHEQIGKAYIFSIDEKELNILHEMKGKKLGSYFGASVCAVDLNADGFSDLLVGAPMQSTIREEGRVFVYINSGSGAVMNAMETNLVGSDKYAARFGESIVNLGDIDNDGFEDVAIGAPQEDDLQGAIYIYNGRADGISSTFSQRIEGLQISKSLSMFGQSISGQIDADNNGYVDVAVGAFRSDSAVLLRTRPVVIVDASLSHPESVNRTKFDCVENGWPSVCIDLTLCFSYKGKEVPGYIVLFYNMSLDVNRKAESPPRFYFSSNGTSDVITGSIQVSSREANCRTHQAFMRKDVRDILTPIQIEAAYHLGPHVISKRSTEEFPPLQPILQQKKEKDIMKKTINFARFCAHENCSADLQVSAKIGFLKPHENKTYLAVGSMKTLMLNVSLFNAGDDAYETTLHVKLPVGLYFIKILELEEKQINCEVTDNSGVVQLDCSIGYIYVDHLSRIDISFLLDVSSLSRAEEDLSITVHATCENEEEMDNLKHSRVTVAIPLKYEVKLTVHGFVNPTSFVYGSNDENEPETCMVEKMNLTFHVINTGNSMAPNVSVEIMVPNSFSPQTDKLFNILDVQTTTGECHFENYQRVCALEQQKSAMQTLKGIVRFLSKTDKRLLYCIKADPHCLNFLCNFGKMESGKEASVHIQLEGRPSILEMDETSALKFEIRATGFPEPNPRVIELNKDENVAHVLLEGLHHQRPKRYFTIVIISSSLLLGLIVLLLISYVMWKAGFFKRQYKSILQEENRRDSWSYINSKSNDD
Sequence (P05556 21-798): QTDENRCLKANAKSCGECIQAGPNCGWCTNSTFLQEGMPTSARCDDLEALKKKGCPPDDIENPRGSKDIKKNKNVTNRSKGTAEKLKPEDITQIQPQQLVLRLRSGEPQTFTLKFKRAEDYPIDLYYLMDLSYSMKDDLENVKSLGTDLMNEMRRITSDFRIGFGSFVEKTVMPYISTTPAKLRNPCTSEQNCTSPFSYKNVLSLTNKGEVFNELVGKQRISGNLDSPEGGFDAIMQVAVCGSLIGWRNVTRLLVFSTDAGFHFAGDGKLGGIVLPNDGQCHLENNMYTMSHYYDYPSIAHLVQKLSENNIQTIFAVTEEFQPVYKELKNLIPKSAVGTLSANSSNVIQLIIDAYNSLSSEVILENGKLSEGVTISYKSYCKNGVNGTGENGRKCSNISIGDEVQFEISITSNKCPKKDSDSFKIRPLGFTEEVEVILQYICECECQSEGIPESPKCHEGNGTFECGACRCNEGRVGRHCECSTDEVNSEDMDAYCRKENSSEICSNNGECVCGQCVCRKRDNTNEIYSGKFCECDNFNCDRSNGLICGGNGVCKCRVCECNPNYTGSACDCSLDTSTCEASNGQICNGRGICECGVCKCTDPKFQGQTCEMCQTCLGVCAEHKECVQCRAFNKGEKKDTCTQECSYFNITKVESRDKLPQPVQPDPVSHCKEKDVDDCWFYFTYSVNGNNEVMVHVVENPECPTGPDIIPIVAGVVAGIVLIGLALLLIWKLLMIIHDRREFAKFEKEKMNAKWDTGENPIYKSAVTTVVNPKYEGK
pIC50: −log10 of the molar value.
measured-metric: pIC50

INSERT INTO assay_data (compound, value_observed) VALUES
  ('C#Cc1ncc(C(CC(=O)O)NC(=O)C(CC(C)C)n2cc(CCN3CC(F)C3)cc(F)c2=O)cc1-c1c(C)cccc1C (stereo not drawn) [Compound 14]', 6.90);

[1] Cc1cc(F)cc(C)c1-c1cc(C(CC(=O)O)NC(=O)C(CC(C)C)n2cc(CCN(C)C)c(C(F)(F)F)cc2=O)cc2nccn12 (stereo not drawn) [Trifluoroacetate of compound 20-2]
[2] Cc1cc(F)cc(C)c1-c1cc(C(CC(=O)O)NC(=O)C(CC(C)C)n2cc(CCN(C)C)c(C(F)(F)F)cc2=O)cc2c1CCC2 (stereo not drawn) [Compound 30-2]
// which entry reports the smaller pIC50, 1 or 2 ? Respond with the label that goes with your answer. 2
(2: 7.04, 1: 7.44)

###

experiment: Pharmacokinetic test in mice; assay type: in vivo; conditions: mouse, intravenous; male BALB/c mice, plasma; groups: intravenously 1 mg/kg, intragastrically 10 mg/kg (route for this parameter not stated)
measured-metric: clearance (mL/min/kg)
The answer is to be given in mL/min/kg; state only the numeric part.

What does the data say about its clearance? Entry: Cc1cc(-c2c(C)cc(F)cc2C)cc([C@H](CC(=O)O)NC(=O)[C@H](CC(C)C)n2cc(CCN(C)C)c(C(F)(F)F)cc2=O)c1F [Control compound A, reference compound] 56
